// data source = ChEMBL document CHEMBL1145476

CC50 by entry:
assay: Cytotoxicity against african green monkey BSC1 cells; assay type: cell-based, BSC-1; conditions: chlorocebus aethiops
# value in µM; strip the unit string

Some compounds with known CC50 results, for comparison:
>>> df
                                   compound  test_value
0  CCCCCCCCCCCCCCCCOCCOP1(=O)CO[C@@H](Cn2cnc(N)nc2=O)CO1 (stereo partly specified)        13.4
1               Nc1ncnc2c1ncn2CCOCP(=O)(O)O         210

[ask] Supply reported CC50 belonging to this compound: Nc1nccc2c1ncn2C[C@@H](CO)OCP(=O)(O)O
[reply] 43.7

[ask] Output CC50 of Nc1cc(OCCOCP(=O)(O)O)nc(N)n1
[reply] 72.8

[ask] Please indicate CC50 recorded for Nc1ncn(C[C@H]2COP(=O)(O)CO2)c(=O)n1
[reply] 323

---

assay: Selectivity index, ratio of CC50 for african green monkey BSC1 cells ot EC50 for Simian virus 40 PML1 EK; type: functional, BSC-1
Could you mark each record MET if its Ratio CC50/EC50 falls strictly under 6, and NOT MET if it equals or exceeds it?

Example results:
In [3]: df
Out[3]:
                               molecule    class
0  Nc1ncnc2c1ncn2C[C@@H](CO)OCP(=O)(O)O      MET
1   Nc1ncn(C[C@H]2COP(=O)(O)CO2)c(=O)n1  NOT MET

[ask] Lab log: compare recorded Ratio CC50/EC50 with 6; is it strictly lower for Nc1ccn(C[C@@H](CO)OCP(=O)(O)O)c(=O)n1.O.O ?
[reply] NOT MET

[ask] Dear reviewer, please state whether Nc1nc(N)c2ncn(C[C@@H](CO)OCP(=O)(O)O)c2n1 has Ratio CC50/EC50 strictly beneath 6.
[reply] NOT MET

[ask] Given the entry Nc1ncnc2c1ncn2CCOCP(=O)(O)O , would its reported Ratio CC50/EC50 be below 6?
[reply] MET

[ask] Here's an entry: Nc1ncnc2c1ncn2C[C@H]1COP(=O)(O)CO1 . Is its Ratio CC50/EC50 below 6?
[reply] NOT MET

[ask] Please indicate whether the reported Ratio CC50/EC50 of Nc1ncn(C[C@@H](CO)OCP(=O)(O)O)c(=O)n1 is strictly below 6.
[reply] NOT MET

[ask] Item Nc1cc(OC[C@@H](CO)OCP(=O)(O)O)nc(N)n1 : Ratio CC50/EC50 beneath 6, strictly?
[reply] MET

[ask] Strictly below 6: is that where Ratio CC50/EC50 of Nc1cc(OCCOCP(=O)(O)O)nc(N)n1 sits?
[reply] MET

[ask] hey, is Ratio CC50/EC50 for CCCCCCCCCCCCCCCCOCCOP1(=O)CO[C@@H](Cn2cnc(N)nc2=O)CO1 (some centres not stated) lower than 6 or not?
[reply] NOT MET

[ask] Confirm or reject: Ratio CC50/EC50 of Nc1nccc2c1ncn2C[C@@H](CO)OCP(=O)(O)O lies strictly below 6
[reply] NOT MET

---

test: Cytotoxicity against mouse UC1B cells; assay type: cell-based
MEASURED ATTRIBUTE: log10 CC50 (log10 of the value in µM)
Transform log10 | Measure CC50 | Unit µM

                                   compound  measured_attribute  test_value
0  Nc1ccn(C[C@@H](CO)OCP(=O)(O)O)c(=O)n1.O.O [CIDOFOVIR]          log10 CC50        2.23
1              Nc1cc(OCCOCP(=O)(O)O)nc(N)n1          log10 CC50        1.64
2  Nc1nc(N)c2ncn(C[C@@H](CO)OCP(=O)(O)O)c2n1          log10 CC50        1.33
3        Nc1ncnc2c1ncn2C[C@H]1COP(=O)(O)CO1          log10 CC50        2.28
4     Nc1ncn(C[C@@H](CO)OCP(=O)(O)O)c(=O)n1          log10 CC50        2.47

[ask] Query log10 CC50 for CCCCCCCCCCCCCCCCOCCOP1(=O)CO[C@@H](Cn2cnc(N)nc2=O)CO1 (some centres not stated)
[reply] 1.27

[ask] Note down log10 CC50 recorded for Nc1nccc2c1ncn2C[C@@H](CO)OCP(=O)(O)O
[reply] 1.69

[ask] Let me know recorded log10 CC50 for Nc1ncn(C[C@H]2COP(=O)(O)CO2)c(=O)n1 , thanks.
[reply] 2.14

[ask] Quick one: give measured log10 CC50 for Nc1ncnc2c1ncn2C[C@@H](CO)OCP(=O)(O)O
[reply] 1.39

[ask] Determine its reported log10 CC50: Nc1cc(OC[C@@H](CO)OCP(=O)(O)O)nc(N)n1
[reply] 1.02

[ask] Let me know recorded log10 CC50 for Nc1ncnc2c1ncn2CCOCP(=O)(O)O [ADEFOVIR] , thanks.
[reply] 1.38

[ask] Indicate its recorded log10 CC50; the compound in question is Nc1ccn(C[C@H]2COP(=O)(O)CO2)c(=O)n1 [CYCLIC CIDOFOVIR]
[reply] 2.76
